Ref: ChEMBL document CHEMBL4004872

# assayName: Cytotoxicity against mouse RAW264.7 cells assessed as growth inhibition at 50 ug/ml after 48 hrs by MTT assay relative to control
# Format: cell-based
# conditionSummary: read-out: GI
Give inhibition at 48 h, 50 ug/ml for every item shown.
One number for each entry, in %.

{"compoundString": "Cc1ccc(CNC(=O)c2ccccc2-n2cc3ccccc3n2)cc1", "measureUnit": "%", "inhibition at 48 h, 50 ug/ml": 34.5}
{"compoundString": "Cc1ccc(NC(=O)c2ccccc2-n2cc3ccccc3n2)c(C)c1", "measureUnit": "%", "inhibition at 48 h, 50 ug/ml": 36.7}
{"compoundString": "O=C(NCc1ccccc1)c1ccccc1-n1cc2cc3c(cc2n1)OCO3", "measureUnit": "%", "inhibition at 48 h, 50 ug/ml": 22.9}
{"compoundString": "O=C(Nc1ccccc1)c1ccccc1-n1cc2ccccc2n1", "measureUnit": "%", "inhibition at 48 h, 50 ug/ml": 39.6}

Give me inhibition at 48 h, 50 ug/ml for each of these compounds, listed below.
1. O=C(NCc1ccccc1)c1ccccc1-n1cc2ccccc2n1
2. O=C(NCCc1c[nH]c2ccccc12)c1ccccc1-n1cc2ccccc2n1

// result
31.6
18.8

###

# assayName: Cytotoxicity against mouse RAW264.7 cells assessed as growth inhibition at 50 ug/ml after 48 hrs by MTT assay relative to control
# Assay type: cell-based
# conditionSummary: read-out: GI
Quick rule: inhibition at 48 h, 50 ug/ml of at least 30% means rule met, below that means rule not met.

Answered cases to consult:
{"compoundString": "O=C(NCc1ccccc1Cl)c1ccccc1-n1cc2ccccc2n1", "classLabel": "rule not met"}
{"compoundString": "COc1cc(NC(=O)c2ccccc2-n2cc3ccccc3n2)cc(OC)c1OC", "classLabel": "rule met"}

// query Confirm if inhibition at 48 h, 50 ug/ml reported for the compound O=C(NCc1ccccc1)c1ccccc1-n1cc2cc(Br)ccc2n1 is 30% or above.
// result rule met

// query Confirm if inhibition at 48 h, 50 ug/ml reported for the compound O=C(NCc1ccc(Cl)cc1)c1ccccc1-n1cc2ccccc2n1 is 30% or above.
// result rule not met

// query Confirm if inhibition at 48 h, 50 ug/ml reported for the compound O=C(Nc1ccccn1)c1ccccc1-n1cc2ccccc2n1 is 30% or above.
// result rule met
